- Target or test system: GPR139 (Homo sapiens, UniProt Q6DWJ6)
- Sequence (Q6DWJ6 whole entry): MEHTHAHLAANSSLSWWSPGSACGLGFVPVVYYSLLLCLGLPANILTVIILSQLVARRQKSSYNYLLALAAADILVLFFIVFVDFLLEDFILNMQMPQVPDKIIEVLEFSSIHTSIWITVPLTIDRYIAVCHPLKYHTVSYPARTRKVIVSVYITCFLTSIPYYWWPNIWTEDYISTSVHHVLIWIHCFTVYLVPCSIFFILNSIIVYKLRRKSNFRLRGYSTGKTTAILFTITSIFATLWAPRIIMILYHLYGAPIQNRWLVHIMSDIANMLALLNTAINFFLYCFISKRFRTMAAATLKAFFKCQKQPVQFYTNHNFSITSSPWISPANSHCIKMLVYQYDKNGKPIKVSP
- Run description: GPR139 Agonist titration / agonist counterscreen assay (calcium detection, HEK-GPR139 cells)
- Assay type: cell-based
- Parameters: expressed in transfected cells; host or cells: HEK Aequorin cells, Maxcyte transient transfection
- Condition parameters: GPR139 Agonist Activity
# maps each entry to its Lipophilic Efficiency (logP)
// no unit string in output, number only

# count of solved cases: 3
Compound: CC1=NNC(=O)C1CC(=O)N/N=C/c1c(Cl)cccc1Cl (stereo not drawn)
Val: 4.32
--
Compound: O=C(Cn1ccc2ccccc21)NCCCC(=O)Nc1cccc2cccnc12
Val: 3.52
--
Compound: CC(CCc1ccccc1)NC(=O)Cn1ncc2c1-c1ccccc1OC2 (stereo not drawn)
Val: 2.73

Give its Lipophilic Efficiency (logP) value. Item: `Cc1ccc(NC(=O)NCCCc2ccccc2)cc1` 1.36

Give its Lipophilic Efficiency (logP) value. Item: O=C(Cn1ncc2c1-c1ccccc1OC2)Nc1ccc(Cl)cc1 [SR-01000152099] 3.61

Give its Lipophilic Efficiency (logP) value. Item: `O=C(Cn1nnc2c1-c1ccccc1OC2)Nc1cccc(Cl)c1` 3.32

Give its Lipophilic Efficiency (logP) value. Item: CC(=O)N1CCSc2cc(S(=O)(=O)NC3CCC(C)CC3)ccc21 (stereo not drawn) 3.15

Give its Lipophilic Efficiency (logP) value. Item: `CN(C)c1ccc(NC(=O)Cn2cc(C=O)c3ccccc32)cc1` 3.32

Give its Lipophilic Efficiency (logP) value. Item: `CC(C)(C)c1cn2cccc(OCc3ccc(Cl)c(Cl)c3)c2n1` 0.98
